These measurements were taken from PubChem BioAssay (NCATS).

PROTOCOL TEXT: Quantitative highthroughput screen to assess conditional lethalithy of P12 Ichikawa cells grown in Human Plasma-Like Medium with dialyzed fetal bovine serum (HPLM+ds) (AID 1963879); also: nearly all actives have a fitted effect of over 35% in size
TEST CONTEXT: ATP luminescence, 48 h; viability; series mostly up to 45.8 µM
Inconclusive results are not listed. Active and inactive are the calls of the source. Calls follow the shape of the dose curve; as a rule, active = well fitted cell-killing curve with a large enough effect; inconclusive = small, poorly fitted or top-dose-only effect; inactive = flat fitted curve, though single readings scatter.
Pick one: TRUE = active, FALSE = inactive

{"COMPOUND": "O=C(O)c1cc(=O)[nH]c(=O)[nH]1", "GROUP": "FALSE"}
{"COMPOUND": "O=C(Nc1ncc(-c2cc(C(F)F)nn2-c2c(Cl)cccc2Cl)s1)C1CC1", "GROUP": "TRUE"}
{"COMPOUND": "Cc1ccc(S(=O)(=O)OCC(=O)Nc2ccc(C(=O)O)c(O)c2)cc1", "GROUP": "TRUE"}
{"COMPOUND": "O=C(Nc1cccc(Cl)c1)Nc1ncc(CCNc2ncnc3ccsc23)s1", "GROUP": "TRUE"}

Query compound follows.
# input For `CC(C)c1nc(CN(C)C(=O)N[C@H](C(=O)N[C@@H](Cc2ccccc2)C[C@H](O)[C@H](Cc2ccccc2)NC(=O)OCc2cncs2)C(C)C)cs1` , which call appears in the assay record?
# output FALSE
